Assay: Single dose pharmacokinetic study in CD-1 mice
Assay type: in vivo
Details: male, CD-1, mouse, plasma, po, 120 mg/kg
experimental-readout: AUC(0-t)
Hey, just the number and the unit after it is fine.

[Q] Query (compound): CC1(C)Oc2cc3oc(=O)ccc3cc2C[C@@H]1O [decursinol] ; field requested: AUC(0-t)
[A] 193 µg·h/mL
